- Test system: 786-0 renal
- TEST_DETAILS: NCI tumour cell line growth inhibition, 48 h; in the data active means GI50 below about 0.43 µM; inactive means the rest
// allowed return values: active, inactive

Please review the entries below; each comes with its answer.
COMPOUND	ASSIGNED_LABEL
Nc1ncnc2c1ccn2[C@@H]1O[C@H]([C@H](O)c2ccc(Cl)c(F)c2)[C@@H](O)[C@H]1O	inactive
Cc1ccc(S(=O)(=O)N2CCc3ccc(O)c4c3C2Cc2ccc3c(c2-4)OCO3)cc1 (centres undefined)	inactive
C[CH2][Sn]([CH2]C)([O]C(=O)c1ccc(OC)c(OC)c1OC)[O]C(=O)c1ccc(OC)c(OC)c1OC	inactive
COCCn1cc(-c2csc(-c3c[nH]c4ccc(Br)cc34)n2)c2cccnc21	inactive
COCc1c(-c2ccc(NC(=O)Nc3cc(C(F)(F)F)ccc3F)c(F)c2)c2c(N)ncnn2c1CN1CCOCC1	inactive
Fc1ccc(Nc2nc3ccccc3c3occc23)cc1	inactive
CCC[CH2][Pb]([Cl])([CH2]CCC)[CH2]CCC	active
COc1ccc(N(C)c2nc(Cl)nc3cnn(C)c23)cc1	active

Data request: What did the test return for Cn1c2ccccc2c2c(=O)n(CCCC(=O)OC(=NC3CCCCC3)NC3CCCCC3)c3c(-c4ccccc4)nnn3c21 ?
Data returned: inactive

Data request: What did the test return for COc1cc2c(cc1C)NC(=O)/C2=C\c1c[nH]c2ccccc12 ?
Data returned: inactive

Data request: What did the test return for [CH3][Sn]([CH3])([CH3])[O][N+](=O)[O-] ?
Data returned: inactive

Data request: What did the test return for Cc1nccc2c3ccc(OCc4cn(-c5ccc(Cl)cc5)nn4)cc3n(CC(C)C)c12 ?
Data returned: inactive

Data request: What did the test return for C=C1C(=O)O[C@H]2[C@H]1CC/C(COC(=O)NCCCCCCCCNC(=O)OC/C1=C/CC[C@@]3(C)O[C@H]3[C@H]3OC(=O)C(=C)[C@@H]3CC1)=C\CC[C@@]1(C)O[C@@H]21 ?
Data returned: active

Data request: What did the test return for COc1cc(/C=C2\C[C@H]3[C@@H]4CC=C5C[C@@H](OC(C)=O)CC[C@]5(C)[C@H]4CC[C@]3(C)[C@H]2OC(C)=O)ccc1OCCN1CCCC1 ?
Data returned: inactive

Reference source for all entries: PubChem BioAssay (NCI)
